- system-tested: murine SR-BI (Mus musculus, UniProt Q61009)
- Construct: expressed in transfected cells; host or cells: ldlA-7 (LDL receptor deficient Chinese hamster ovary cells)
- Sequence (Q61009 whole entry): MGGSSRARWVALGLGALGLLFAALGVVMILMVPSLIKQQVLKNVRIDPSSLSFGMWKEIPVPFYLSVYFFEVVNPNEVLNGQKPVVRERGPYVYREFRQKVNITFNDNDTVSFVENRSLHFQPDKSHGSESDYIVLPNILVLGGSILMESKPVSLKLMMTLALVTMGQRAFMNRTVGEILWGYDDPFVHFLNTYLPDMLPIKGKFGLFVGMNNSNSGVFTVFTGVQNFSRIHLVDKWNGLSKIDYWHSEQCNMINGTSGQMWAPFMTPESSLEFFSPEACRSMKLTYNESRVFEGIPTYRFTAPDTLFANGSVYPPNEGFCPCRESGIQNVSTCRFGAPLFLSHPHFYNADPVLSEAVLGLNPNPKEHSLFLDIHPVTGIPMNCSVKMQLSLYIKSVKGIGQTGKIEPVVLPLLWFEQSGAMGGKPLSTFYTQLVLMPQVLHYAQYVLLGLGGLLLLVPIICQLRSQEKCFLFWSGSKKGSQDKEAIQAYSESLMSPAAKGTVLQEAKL
- assay-overview: Uptake of DiI from DiI-HDL by ldlA[mSR-BI] cells (high throughput screen and concentration dependence)
- Assay type: cell-based
- setup-conditions: Test 1
Mark each entry T if its ENDOHDL Test 1 sits below 0.6, and F for all others.

- molecule: "O=C(Nc1ccc2c(c1)S(=O)(=O)c1cc(NC(=O)c3cccc4ccccc34)ccc1-2)c1cccc2ccccc12"
  class: "T"
- molecule: "O=C(Nc1ccc(Cl)cc1)c1ccc(N2C(=O)c3ccc(C(=O)Nc4ccc(Cl)cc4)cc3C2=O)cc1"
  class: "F"
- molecule: "CN(C)CC(=O)Nc1ccc2c(c1)Nc1ccccc1CC2.Cl"
  class: "T"
- molecule: "CC(=O)Oc1ccc2ccccc2c1C=O"
  class: "T"
- molecule: "Cc1cc(C)c(/C=N/N=C/c2c(C)cc(C)cc2C)c(C)c1"
  class: "F"
- molecule: "O=C1CC(S/C(=N\\c2ccccc2)Nc2ccccc2)C(=O)N1c1cccc2ccccc12 (centres unmarked)"
  class: "T"

QUERY: Is 0.6 strictly greater than the molecule's reported ENDOHDL Test 1? molecule: O=C(O)CCNC(=O)c1ccccc1
RESULT: F

QUERY: Confirm or reject: ENDOHDL Test 1 of [O-][n+]1onc2c3cc(-c4ccccc4)[nH]c3ccc21 lies strictly below 0.6
RESULT: T

QUERY: In plain terms, does CCOC(=O)c1sc(-c2ccccc2)nc1-c1ccc([N+](=O)[O-])cc1 come in under 0.6 for ENDOHDL Test 1?
RESULT: T

QUERY: Determine if CO/C(=N\C(NC(=S)Nc1ccccc1)C(Cl)(Cl)Cl)c1ccc(C)cc1 (centres unmarked) shows ENDOHDL Test 1 strictly lower than 0.6.
RESULT: F

QUERY: Determine whether this molecule shows ENDOHDL Test 1 lower than 0.6 (ties excluded): O=C(NC(NC(=S)Nc1ccc2ccccc2c1)C(Cl)(Cl)Cl)c1cccc([N+](=O)[O-])c1 (centres unmarked)
RESULT: T

QUERY: I'd appreciate it if you could check whether O=C(Nc1ccc(Cl)cc1C(=O)c1ccc(Cl)cc1)c1cc(Cl)ccc1NS(=O)(=O)c1ccc(Cl)cc1 has ENDOHDL Test 1 smaller than 0.6.
RESULT: T

QUERY: A record lists COc1ccc(/C=C2/S/C(=N/c3ccccc3)NC2=O)c(OC)c1 . Is its ENDOHDL Test 1 below 0.6?
RESULT: F

QUERY: Consider O=C1CC(N2CCOCC2)C(=O)N1c1ccc(Br)cc1 (centres unmarked) [MIT 9952-17] . Does its ENDOHDL Test 1 lie strictly below 0.6?
RESULT: F

QUERY: Is the reported ENDOHDL Test 1 for Cc1cccc(N2C(=O)CC(N3CCOCC3)C2=O)c1 (centres unmarked) strictly below 0.6?
RESULT: F

QUERY: Problem: For the molecule COc1ccc(C(=O)NC(Nc2cccc3ccccc23)C(Cl)(Cl)Cl)cc1 (centres unmarked) , is ENDOHDL Test 1 under 0.6?
RESULT: T

QUERY: Confirm or reject: ENDOHDL Test 1 of Nc1nc(-c2ccccc2)nc2sc3c(c12)CCCC3 lies strictly below 0.6
RESULT: T

QUERY: # strict comparison: is reported ENDOHDL Test 1 < 0.6? input = C/C(CCS(=O)(=O)c1ccc(C)cc1)=N\NC(N)=S
RESULT: T
